system-under-test: recombinant autotaxin (Homo sapiens, UniProt Q13822)
procedure-summary: Autotaxin assay (Amplex Red, LPC substrate)
conditions-used: 75 μM LPC, Amplex Red fluorescence, ten 1:3 dilutions starting at 30 μM
For each entry below, report its IC50 value.

Tested on recombinant autotaxin (Homo sapiens, UniProt Q13822): COc1ccccc1CNc1ncc2c(N3CCC(C(=O)N4CCN(c5ccccn5)CC4)CC3)nccc2n1 . Observed IC50: < 30 µM

Tested on recombinant autotaxin (Homo sapiens, UniProt Q13822): CCOC(=O)CCNC(=O)C1CCCN(c2nccc3nc(NCc4ccccc4Cl)ncc23)C1 (centres unmarked) . Observed IC50: < 10 µM

Tested on recombinant autotaxin (Homo sapiens, UniProt Q13822): COc1ccccc1CNc1ncc2c(Nc3ccc(F)cc3F)nccc2n1 . Observed IC50: < 30 µM

Tested on recombinant autotaxin (Homo sapiens, UniProt Q13822): C=CCNC(=O)C1CCN(c2nccc3nc(NCc4ccccc4Cl)ncc23)CC1 . Observed IC50: < 30 µM

Tested on recombinant autotaxin (Homo sapiens, UniProt Q13822): CCCNC(=O)C1CCCN(c2nccc3nc(NCc4ccccc4Cl)ncc23)C1 (centres unmarked) . Observed IC50: < 30 µM

Tested on recombinant autotaxin (Homo sapiens, UniProt Q13822): Cc1cc(F)ccc1Nc1nccc2nc(NCc3ccc(Cl)cc3)ncc12 . Observed IC50: < 30 µM

Tested on recombinant autotaxin (Homo sapiens, UniProt Q13822): NC(=O)C1CCN(c2nccc3nc(NCc4ccccc4Cl)ncc23)CC1 . Observed IC50: < 5 µM

Tested on recombinant autotaxin (Homo sapiens, UniProt Q13822): CCN(CC)CCNC(=O)C1CCN(c2nccc3nc(NCc4ccccc4Cl)ncc23)CC1 . Observed IC50: < 5 µM

Data origin: patent US8530650B2
